Values from patent US11548870B2

target: Helios (Homo sapiens, UniProt Q96SW2+Q9UKS7); construct: fluorescently labelled antibodies against Helios and Ikaros; endogenous in cells; host or cells: Jurkat cells; assay: Helios Cellular Degradation Assay (flow cytometry, Helios-PE antibody staining, 72 h); type: cell-based; details: Jurkat cells, 72 h incubation, flow cytometry
Sequence (Q9UKS7 whole entry): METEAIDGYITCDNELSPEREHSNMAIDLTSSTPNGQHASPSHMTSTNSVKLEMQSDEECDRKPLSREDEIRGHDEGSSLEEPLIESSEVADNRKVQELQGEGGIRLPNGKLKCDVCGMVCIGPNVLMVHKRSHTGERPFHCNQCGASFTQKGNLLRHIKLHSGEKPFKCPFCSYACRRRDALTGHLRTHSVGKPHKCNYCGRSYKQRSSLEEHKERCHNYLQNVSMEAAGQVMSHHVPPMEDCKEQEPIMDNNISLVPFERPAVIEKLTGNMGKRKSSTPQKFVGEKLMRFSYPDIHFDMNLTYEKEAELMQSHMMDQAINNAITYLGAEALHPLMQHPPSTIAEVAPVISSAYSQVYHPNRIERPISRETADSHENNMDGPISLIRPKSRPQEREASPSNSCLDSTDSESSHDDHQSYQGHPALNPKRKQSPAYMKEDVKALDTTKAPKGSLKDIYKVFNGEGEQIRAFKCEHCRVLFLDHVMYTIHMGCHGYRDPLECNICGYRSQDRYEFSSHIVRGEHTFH
Sequence (Q96SW2 whole entry): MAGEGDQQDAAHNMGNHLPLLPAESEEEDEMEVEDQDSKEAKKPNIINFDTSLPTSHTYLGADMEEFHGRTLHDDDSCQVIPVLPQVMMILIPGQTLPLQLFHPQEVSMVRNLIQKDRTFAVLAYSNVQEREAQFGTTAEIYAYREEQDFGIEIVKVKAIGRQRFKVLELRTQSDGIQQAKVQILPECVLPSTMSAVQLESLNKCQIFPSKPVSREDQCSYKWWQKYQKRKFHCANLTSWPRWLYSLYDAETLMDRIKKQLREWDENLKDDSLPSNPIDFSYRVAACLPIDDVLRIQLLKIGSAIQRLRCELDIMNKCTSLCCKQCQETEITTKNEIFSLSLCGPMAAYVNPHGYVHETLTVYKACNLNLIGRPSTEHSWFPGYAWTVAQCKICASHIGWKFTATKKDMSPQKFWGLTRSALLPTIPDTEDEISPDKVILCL
Sequence (Q16531 whole entry partner): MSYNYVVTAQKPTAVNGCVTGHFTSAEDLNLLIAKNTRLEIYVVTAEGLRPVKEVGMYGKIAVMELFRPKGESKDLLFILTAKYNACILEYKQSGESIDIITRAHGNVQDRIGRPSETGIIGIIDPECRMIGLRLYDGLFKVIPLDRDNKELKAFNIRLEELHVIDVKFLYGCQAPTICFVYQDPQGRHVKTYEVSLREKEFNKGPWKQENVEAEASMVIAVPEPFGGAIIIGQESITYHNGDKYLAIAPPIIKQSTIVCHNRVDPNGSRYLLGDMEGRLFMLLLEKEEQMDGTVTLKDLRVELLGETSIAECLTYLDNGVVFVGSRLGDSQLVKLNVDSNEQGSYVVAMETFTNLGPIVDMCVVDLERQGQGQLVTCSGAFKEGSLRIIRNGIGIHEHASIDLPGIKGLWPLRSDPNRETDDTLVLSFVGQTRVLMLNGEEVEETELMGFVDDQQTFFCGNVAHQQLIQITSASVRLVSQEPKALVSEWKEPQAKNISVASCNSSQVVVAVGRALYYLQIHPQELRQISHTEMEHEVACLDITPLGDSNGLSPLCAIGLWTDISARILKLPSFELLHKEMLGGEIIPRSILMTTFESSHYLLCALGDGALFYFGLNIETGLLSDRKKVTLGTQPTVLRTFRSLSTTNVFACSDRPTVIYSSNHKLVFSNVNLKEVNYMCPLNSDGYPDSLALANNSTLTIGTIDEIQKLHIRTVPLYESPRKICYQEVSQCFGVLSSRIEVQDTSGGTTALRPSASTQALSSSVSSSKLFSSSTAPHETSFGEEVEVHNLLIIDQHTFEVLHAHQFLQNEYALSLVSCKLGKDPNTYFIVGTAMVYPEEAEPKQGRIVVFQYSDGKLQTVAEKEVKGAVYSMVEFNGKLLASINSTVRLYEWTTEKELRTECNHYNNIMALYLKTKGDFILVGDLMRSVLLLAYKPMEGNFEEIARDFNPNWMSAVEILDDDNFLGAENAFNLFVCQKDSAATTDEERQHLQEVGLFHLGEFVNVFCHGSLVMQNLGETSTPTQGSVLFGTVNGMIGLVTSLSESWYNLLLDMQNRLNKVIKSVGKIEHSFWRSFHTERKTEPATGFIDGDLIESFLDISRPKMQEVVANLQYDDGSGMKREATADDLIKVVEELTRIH
Collected DC50 values appear next to each entry.

See these solved cases before continuing.
COMPOUND	DC50
CN(Cc1ccncc1)Cc1ccnc(-c2ccc3c(c2)CN(C2CCC(=O)NC2=O)C3=O)c1 (stereo not shown) [Example 160]	0.359 µM
CN1CCN(Cc2ccnc(-c3ccc4c(c3)CN(C3CCC(=O)NC3=O)C4=O)c2)CC1 (stereo not shown) [Example 35]	0.869 µM
O=C1CCC(N2Cc3cc(-c4cc(CN5CC6CC5CO6)ccn4)ccc3C2=O)C(=O)N1 (stereo not shown) [Example 79]	> 10 µM

As a next step, examine the compound that follows.
Entry CCNCc1ccnc(-c2ccc3c(c2)CN(C2CCC(=O)NC2=O)C3=O)c1 (stereo not shown) [Example 116] — recorded DC50 = 0.025 µM
